Kindly supply the reported Activity values for the records listed here.
# System: RAW264.7
# test summary: Cytoprotective activity against H2O2-induced oxidative stress in mouse RAW264.7 cells assessed as decrease in LDH release at 1 pM incubated for 2 hrs prior to H2O2 addition by colorimetric assay relative to control
# Format: functional
# Parameters: scale not given: the % may be the effect or the level left
Give bare numbers, in %.

Reference set (5 entries):
Cl.OCCCN1CCc2ccccc21; 16
CC(C)NC(=O)CCN1CCc2ccccc21.Cl; 16
Cl.NCCCN1CCc2ccccc21; 16
CC(C)NCCCN1CCc2ccccc21.Cl.Cl; 16
COC(=O)CCN1CCc2ccccc21.Cl; 16

Pending compound:
Suppose we examine the compound COC(=O)CCN1CCc2cc(OC)ccc21.Cl ; what Activity value has been reported?
16

* * *

# test summary: Cytotoxicity against mouse RAW264.7 cells assessed as cell viability at 10^-12 M after 24 hrs by MTT assay relative to control
# Format: cell-based
# particulars: read-out: Activity
experimental endpoint: viability at 24 h, 1e-06 µM (%)
Give bare numbers, in %.

COc1ccc2c(c1)CCN2CCCO.Cl; 91.9

Please supply viability at 24 h, 1e-06 µM for each of the following items, keeping them in order.
1. COC(=O)CCN1CCc2ccccc21.Cl
2. CC(C)NC(=O)CCN1CCc2cc(Cl)ccc21
3. Cl.OCCCN1CCc2ccccc21
4. COC(=O)CCC1CNc2ccccc21 (configuration not stated)
5. CC(C)NCCCN1CCc2ccccc21.Cl.Cl
6. COC(=O)CCN1CCc2cc(Cl)ccc21.Cc1ccc(S(C)(=O)=O)cc1

[95, 95.6, 89.5, 99.5, 93.3, 108]

* * *

# System: RAW264.7
# test summary: Antiinflammatory activity in mouse RAW264.7 cells assessed as reduction in LPS-induced IL-6 production at 1 nM incubated for 2 hrs prior to LPS challenge measured after 24 hrs by ELISA
# Format: functional
Activity calls are given as the source filed them. The rule behind the calls is not given here.
experimental endpoint: Activity

Below are worked cases with known answers.
COC(=O)CCC1CNc2ccccc21 (stereo not given); Active
COC(=O)CCN1CCc2ccccc21.Cl; Active
COc1ccc2c(c1)CCN2CCCNC(C)C.Cl.Cl; 50%
CC(C)NCCCN1CCc2ccccc21.Cl.Cl; 50%

Sample Cl.NCCCN1CCc2ccccc21 — what was its Activity?
Active

* * *

Could you please report measured viability at 24 h, 0.0001 µM for the items listed next?
# test summary: Cytotoxicity against mouse RAW264.7 cells assessed as cell viability at 10^-10 M after 24 hrs by MTT assay relative to control
# Format: cell-based
# particulars: read-out: Activity
Answers are plain numbers, in %.

Known viability at 24 h, 0.0001 µM results, listed for orientation:
Cl.OCCCN1CCc2ccccc21; 91.6
COC(=O)CCN1CCc2cc(Cl)ccc21.Cc1ccc(S(C)(=O)=O)cc1; 104
CC(C)NCCCN1CCc2ccccc21.Cl.Cl; 99.2
COC(=O)CCC1CNc2ccccc21 (configuration not stated); 96.6
CC(C)NC(=O)CCN1CCc2cc(Cl)ccc21; 98.2
COC(=O)CCN1CCc2ccccc21.Cl; 93.3

Here is the next item to consider.
Which viability at 24 h, 0.0001 µM reading was recorded for the compound COc1ccc2c(c1)CCN2CCCO.Cl ?
93.9

* * *

# test summary: Cytotoxicity against mouse RAW264.7 cells assessed as cell viability at 10^-7 M after 24 hrs by MTT assay relative to control
# Assay type: cell-based
# particulars: read-out: Activity
Answer each item with its documented viability at 24 h, 0.1 µM.
Numbers only, in %.

// below: answered compounds
COc1ccc2c(c1)CCN2CCCO.Cl; 91.9
Cl.OCCCN1CCc2ccccc21; 94.4
COC(=O)CCN1CCc2ccccc21.Cl; 90.8
COC(=O)CCC1CNc2ccccc21 (configuration not stated); 92.9
CC(C)NC(=O)CCN1CCc2cc(Cl)ccc21; 103

For each listed entry, give its viability at 24 h, 0.1 µM.
1. CC(C)NCCCN1CCc2ccccc21.Cl.Cl
2. COC(=O)CCN1CCc2cc(Cl)ccc21.Cc1ccc(S(C)(=O)=O)cc1

1. 91.9
2. 105
